# % Inhn. Plus Copper Observed listing for each entry below
Test system: C. reinhardtii CC-1928
measurement.description: Effect of copper on activity of hydrazones: in vitro growth inhibition of C. reinhardtii in TAP Cu minus / TAP Cu plus medium (Example 10)
Assay type: cell-based, Chlamydomonas reinhardtii
condition.details: test compound 1 μg/mL; TAP Cu plus medium (CuCl2); 48 h
Kindly provide the numeric value in % only, without the unit symbol.

Worked set:
C/C(=N\NC(=O)c1ccc(C)cc1)c1cccc(Cl)c1O | 92
C/C(=N\NC(=O)c1cccc(C)c1)c1cc(Cl)cc(Cl)c1O | 95
Cc1cccc(C(=O)N/N=C/c2ccc(Cl)c(Cl)c2O)c1 | 94
O=C(N/N=C/c1c(Cl)ccc(Cl)c1O)c1ccc(Cl)cc1 | 96

Qu. May I ask what % Inhn. Plus Copper Observed has been recorded for Cc1ccccc1C(=O)N/N=C/c1cc(Cl)cc(Br)c1O ?
Ans. 95

Qu. Same question, O=C(N/N=C/c1cccc(C(F)(F)F)c1O)c1cccc(F)c1 this time
Ans. 97

###

Tested on: C. reinhardtii CC-1928
measurement.description: Effect of copper on activity of hydrazones: in vitro growth inhibition of C. reinhardtii in TAP Cu minus / TAP Cu plus medium (Example 10)
Type: cell-based, Chlamydomonas reinhardtii
condition.details: Chlamydomonas reinhardtii; test compound 1 μg/mL; TAP Cu minus medium; 48 h; read-out: % Inhn. Minus Copper Observed
metric: inhibition of growth at 1 µg/mL
I'd appreciate it if you wrote the number followed by its unit.

Worked set:
O=C(N/N=C/c1cc(Cl)cc(Br)c1O)c1cccc(Br)c1 | 32%
C/C(=N\NC(=O)c1ccccc1)c1ccccc1O | 10%
O=C(N/N=C/c1cccc(Cl)c1O)c1ccccc1O | -8%
O=C(N/N=C/c1cc(Cl)cc(C(F)(F)F)c1O)c1ccccc1 | 30%

Qu. May I ask what inhibition of growth at 1 µg/mL has been recorded for C/C(=N\NC(=O)Cc1ccccc1)c1cc(Cl)cc(Cl)c1O ?
Ans. 17%

###

Tested on: C. reinhardtii CC-1928
measurement.description: Effect of copper on activity of hydrazones: in vitro growth inhibition of C. reinhardtii in TAP Cu minus / TAP Cu plus medium (Example 10)
Format: cell-based, Chlamydomonas reinhardtii
condition.details: test compound 1 μg/mL; TAP Cu plus medium (CuCl2); 48 h
metric: % Inhn. Plus Copper Observed (%)
Kindly provide the numeric value in % only, without the unit symbol.

O=C(N/N=C/c1c(Cl)ccc(Cl)c1O)c1cccc(Cl)c1 [Compound 44] | 94
O=C(N/N=C/c1cc(Cl)cc(Cl)c1O)c1ccc(Cl)cc1 [Compound 64] | 97

Consider now this further molecule.
Qu. May I ask what % Inhn. Plus Copper Observed has been recorded for O=C(N/N=C/c1cc(Cl)ccc1O)c1ccccc1 [Compound 3] ?
Ans. 62

###

metric: melting point

Worked set:
Cc1ccc(C(=O)N/N=C/c2cccc(C(F)(F)F)c2O)c(O)c1 [Compound 37] | 248 to 253 °C
O=C(N/N=C/c1ccc(Cl)c(Cl)c1O)c1ccccc1 [Compound 21] | 249 to 252 °C

Consider now this further compound.
Qu. May I ask what melting point has been recorded for C/C(=N\NC(=O)c1ccc(C)cc1)c1cc(Cl)cc(Cl)c1O [Compound 26] ?
Ans. 262 to 264 °C

###

System: C. reinhardtii CC-1928
measurement.description: Effect of copper on activity of hydrazones: in vitro growth inhibition of C. reinhardtii in TAP Cu minus / TAP Cu plus medium (Example 10)
Assay type: cell-based, Chlamydomonas reinhardtii
condition.details: Chlamydomonas reinhardtii; test compound 1 μg/mL; TAP Cu minus medium; 48 h; read-out: % Inhn. Minus Copper Observed
metric: inhibition of growth at 1 µg/mL (%)
Kindly provide the numeric value in % only, without the unit symbol.

Worked set:
Cc1ccc(C(=O)N/N=C/c2cccc(C(F)(F)F)c2O)c(O)c1 | 12
C/C(=N\NC(=O)c1ccc(Br)cc1)c1cccc([N+](=O)[O-])c1O | -50
Cc1ccc(C(=O)N/N=C/c2cccc(Cl)c2O)c(O)c1 | -3
Cc1ccccc1C(=O)N/N=C/c1cc(Cl)cc(Cl)c1O | -18

Qu. May I ask what inhibition of growth at 1 µg/mL has been recorded for O=C(N/N=C/c1cc(Cl)cc(Cl)c1O)c1cccc(Cl)c1 ?
Ans. 15

Qu. Same question, Cc1cccc(C(=O)N/N=C/c2cccc(C(F)(F)F)c2O)c1 this time
Ans. 21

Qu. Same question, O=C(N/N=C/c1cc(Cl)cc(Cl)c1O)c1ccccc1 this time
Ans. 16

Qu. Same question, O=C(N/N=C/c1c(Cl)ccc(Cl)c1O)c1ccc(F)cc1 this time
Ans. 9

Qu. Same question, O=C(N/N=C/c1cc(Br)cc(Br)c1O)c1ccccc1 this time
Ans. 31

Qu. Same question, C/C(=N\NC(=O)c1ccc(Cl)cc1)c1cc(Cl)cc(Cl)c1O this time
Ans. 4

###

# % Inhn. Plus Copper Observed listing for each entry below
System: C. reinhardtii CC-1928
measurement.description: Effect of copper on activity of hydrazones: in vitro growth inhibition of C. reinhardtii in TAP Cu minus / TAP Cu plus medium (Example 10)
Type: cell-based, Chlamydomonas reinhardtii
condition.details: test compound 1 μg/mL; TAP Cu plus medium (CuCl2); 48 h
Kindly provide the numeric value in % only, without the unit symbol.

Worked set:
O=C(N/N=C/c1cc(C(F)(F)F)cc(Cl)c1O)c1ccccc1O [Compound 30] | 92
C/C(=N\NC(=O)c1ccccc1Br)c1cc(Cl)cc(Cl)c1O [Compound 5] | 95
O=C(N/N=C/c1cc(Cl)cc(C(F)(F)F)c1O)c1ccccc1 [Compound 27] | 96

Qu. May I ask what % Inhn. Plus Copper Observed has been recorded for C/C(=N\NC(=O)c1ccc(Cl)cc1)c1cc(Cl)cc(Cl)c1O [Compound 12] ?
Ans. 96

Qu. Same question, O=C(N/N=C/c1cc(Cl)cc(Br)c1O)c1ccc(Cl)cc1 [Compound 15] this time
Ans. 97

Qu. Same question, O=C(N/N=C/c1cccc(C(F)(F)F)c1O)c1ccccc1O [Compound 36] this time
Ans. 96

###

Tested on: C. reinhardtii CC-1928
measurement.description: Effect of copper on activity of hydrazones: in vitro growth inhibition of C. reinhardtii in TAP Cu minus / TAP Cu plus medium (Example 10)
Assay type: cell-based, Chlamydomonas reinhardtii
condition.details: Chlamydomonas reinhardtii; test compound 1 μg/mL; TAP Cu minus medium; 48 h; read-out: % Inhn. Minus Copper Observed
Description: In vitro toxicity assays against C. reinhardtii CC-1928 (wild type mt+137c green in dark subclone) obtained from the Chlamydomonas Resource Center at Duke University were conducted using TAP liquid growth medium described by Gorman and Levine Proc. Natl. Acad. Sci. USA 1965, 54, 1665-1669 except that CuSO4.5H2O, normally included as a component of Hutner's trace element stock solution (Hutner et al. Proc. Am. Philos. Soc. 1950, 94, 152-170), was omitted. […]
metric: inhibition of growth at 1 µg/mL (%)
Kindly provide the numeric value in % only, without the unit symbol.

Qu. Record O=C(N/N=C/c1cc(Cl)cc(Cl)c1O)c1ccccc1O [Compound 7] : what is its inhibition of growth at 1 µg/mL with C. reinhardtii CC-1928?
Ans. 29

Qu. Same question, O=C(N/N=C/c1c(C(F)(F)F)ccc(Cl)c1O)c1ccc(Cl)cc1 [Compound 56] this time
Ans. 11

Qu. Same question, O=C(N/N=C/c1c(O)cccc1Cl)c1ccc([N+](=O)[O-])cc1 [Compound 49] this time
Ans. 33

Qu. Same question, O=C(N/N=C/c1cccc(Cl)c1O)c1cccc(Cl)c1 [Compound 51] this time
Ans. -13

Qu. Same question, O=C(N/N=C/c1c(Cl)ccc(Cl)c1O)c1cccc(Cl)c1 [Compound 44] this time
Ans. 11

Qu. Same question, C/C(=N\NC(=O)c1ccc(C)cc1)c1cccc(Cl)c1O [Compound 59] this time
Ans. -6

Qu. Same question, O=C(N/N=C/c1c(C(F)(F)F)ccc(Cl)c1O)c1ccccc1O [Compound 57] this time
Ans. -11

###

# inhibition of growth at 1 µg/mL listing for each entry below
System: C. reinhardtii CC-1928
measurement.description: Effect of copper on activity of hydrazones: in vitro growth inhibition of C. reinhardtii in TAP Cu minus / TAP Cu plus medium (Example 10)
Type: cell-based, Chlamydomonas reinhardtii
condition.details: Chlamydomonas reinhardtii; test compound 1 μg/mL; TAP Cu minus medium; 48 h; read-out: % Inhn. Minus Copper Observed
Kindly provide the numeric value in % only, without the unit symbol.

Worked set:
C/C(=N\NC(=O)c1ccc(Cl)cc1)c1cc(F)cc(F)c1O [Compound 62] | 0
O=C(N/N=C/c1cc(C(F)(F)F)cc(Cl)c1O)c1ccc(F)cc1 [Compound 29] | 16
COc1cc(Br)cc(/C=N/NC(=O)c2ccc(C)cc2)c1O [Compound 20] | -6
C/C(=N\NC(=O)c1ccccc1)c1cc(Br)cc(Br)c1O [Compound 61] | -56
O=C(N/N=C/c1cc(Cl)cc(Cl)c1O)c1ccc(F)cc1 [Compound 4] | 12

Consider now this further molecule.
Qu. May I ask what inhibition of growth at 1 µg/mL has been recorded for O=C(N/N=C/c1cccc(C(F)(F)F)c1O)c1ccccc1O [Compound 36] ?
Ans. 7
